Molecular target: T1, human LAG3 (human, UniProt P18627 29-450, limits assumed)
T1 construct: also called hLAG3
T1 sequence: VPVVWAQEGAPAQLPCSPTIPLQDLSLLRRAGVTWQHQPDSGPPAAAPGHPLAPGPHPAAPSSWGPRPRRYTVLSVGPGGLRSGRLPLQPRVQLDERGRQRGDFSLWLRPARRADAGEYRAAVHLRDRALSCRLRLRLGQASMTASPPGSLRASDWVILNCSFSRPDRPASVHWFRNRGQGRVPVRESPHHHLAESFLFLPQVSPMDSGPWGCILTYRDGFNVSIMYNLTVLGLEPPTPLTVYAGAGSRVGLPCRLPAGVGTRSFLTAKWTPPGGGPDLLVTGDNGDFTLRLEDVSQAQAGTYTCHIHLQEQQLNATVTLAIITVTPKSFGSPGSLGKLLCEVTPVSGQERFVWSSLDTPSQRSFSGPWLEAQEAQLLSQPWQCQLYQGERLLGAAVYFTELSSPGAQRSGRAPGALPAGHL
Assay: BLI (Octet) as in Examples 1-4, His-tagged VHH, human LAG3

Binder	kon (M⁻¹ s⁻¹)
LG19 (VHH, not shown: C-terminal His-tag) VHH: QVQLVESGGGLVQPGGSLRLSCAASGFTLDYYAIGWFRQAPGKEREGVSCISSSDGSTYYADSVKGRFTISRDNAKNTVYLQMNSLKPEDTAVYYCAADRRGSCRQYDYWGQGTQVTVSS	87000
LG9 (VHH, not shown: C-terminal His-tag) VHH: EVQLVESGGGLVQPGGSLRLSCAASGSTIDDYPIGWFRQAPGKEREGVSCIDDSDESTYYADSVKGRFTISRDNAKNTVYLQMNSLKPEDTAVYYCARGAIFMIDGVDVFLTYYYDSWGQGTQVTVSS	62100
hLG9 (VHH, also called LG9H; not shown: C-terminal His-tag) VHH: EVQLLESGGGLVQPGGSLRLSCAASGSTIDDYPMSWFRQAPGKGREGVAAIDDSDESTYYADSVKGRFTISRDNSKNTLYLQMNSLRAEDTAVYYCARGAIFMIDGVDVFLTYYYDSWGQGTLVTVSS	110000
LG-D8 (VHH, not shown: C-terminal His-tag) VHH: QVQLVESGGGLVQPGGSLRLSCAASGFTFGKYAMSWVRQVPDKGLEWVSSISSSGRDTSYADSAKGRFTIFRNNAANTVYLQMDNLKLEDTGVYYCVKCLEVWATREYDGWGQGTQVTVSS	33000
